tested system: AR T877A (Homo sapiens (Human), UniProt P10275, T878A)
Sequence (P10275 whole entry T878A): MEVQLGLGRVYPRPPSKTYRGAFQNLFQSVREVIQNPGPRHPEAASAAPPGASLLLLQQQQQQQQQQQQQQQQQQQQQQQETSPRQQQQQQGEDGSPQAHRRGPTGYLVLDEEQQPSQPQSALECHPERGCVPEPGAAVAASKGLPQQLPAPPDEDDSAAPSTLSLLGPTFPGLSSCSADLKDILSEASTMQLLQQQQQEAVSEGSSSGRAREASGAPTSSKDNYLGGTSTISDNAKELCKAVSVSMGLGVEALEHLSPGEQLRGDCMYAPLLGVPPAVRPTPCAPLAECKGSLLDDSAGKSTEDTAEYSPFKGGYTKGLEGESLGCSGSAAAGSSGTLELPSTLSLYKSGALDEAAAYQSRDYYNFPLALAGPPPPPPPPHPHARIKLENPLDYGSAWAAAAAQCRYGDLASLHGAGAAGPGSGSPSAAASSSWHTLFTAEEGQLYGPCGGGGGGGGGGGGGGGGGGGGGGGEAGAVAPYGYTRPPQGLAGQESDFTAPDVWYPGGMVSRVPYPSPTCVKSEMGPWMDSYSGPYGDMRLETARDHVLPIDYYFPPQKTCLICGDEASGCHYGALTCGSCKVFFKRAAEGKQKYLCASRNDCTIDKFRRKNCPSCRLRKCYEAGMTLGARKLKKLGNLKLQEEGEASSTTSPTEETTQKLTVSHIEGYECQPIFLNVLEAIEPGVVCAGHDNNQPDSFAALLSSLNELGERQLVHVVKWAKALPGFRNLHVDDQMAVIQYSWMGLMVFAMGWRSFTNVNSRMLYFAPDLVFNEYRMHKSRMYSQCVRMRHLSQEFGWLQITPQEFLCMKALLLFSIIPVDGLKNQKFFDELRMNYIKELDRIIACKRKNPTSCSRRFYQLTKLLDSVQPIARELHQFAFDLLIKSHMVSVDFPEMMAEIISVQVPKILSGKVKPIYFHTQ
experimental details: Luciferase Transcriptional Reporter Assay, AR T877A (HepG2)
reported conditions: HepG2, antagonist mode, 90 pM R1881, 48 hours; read-out: Antagonism IC50, AR construct T877A

{"query smiles": "N#Cc1ncc(N2C(=O)C3(CCC3)N(c3ccc(OC4CCNCC4)nc3)C2=S)cc1C(F)(F)F", "IC50 / µM": 6.81}

###

tested system: F876L mutant Androgen Receptor (AR-F876L) (Homo sapiens (Human), UniProt P10275, F877L)
Sequence (P10275 whole entry F877L): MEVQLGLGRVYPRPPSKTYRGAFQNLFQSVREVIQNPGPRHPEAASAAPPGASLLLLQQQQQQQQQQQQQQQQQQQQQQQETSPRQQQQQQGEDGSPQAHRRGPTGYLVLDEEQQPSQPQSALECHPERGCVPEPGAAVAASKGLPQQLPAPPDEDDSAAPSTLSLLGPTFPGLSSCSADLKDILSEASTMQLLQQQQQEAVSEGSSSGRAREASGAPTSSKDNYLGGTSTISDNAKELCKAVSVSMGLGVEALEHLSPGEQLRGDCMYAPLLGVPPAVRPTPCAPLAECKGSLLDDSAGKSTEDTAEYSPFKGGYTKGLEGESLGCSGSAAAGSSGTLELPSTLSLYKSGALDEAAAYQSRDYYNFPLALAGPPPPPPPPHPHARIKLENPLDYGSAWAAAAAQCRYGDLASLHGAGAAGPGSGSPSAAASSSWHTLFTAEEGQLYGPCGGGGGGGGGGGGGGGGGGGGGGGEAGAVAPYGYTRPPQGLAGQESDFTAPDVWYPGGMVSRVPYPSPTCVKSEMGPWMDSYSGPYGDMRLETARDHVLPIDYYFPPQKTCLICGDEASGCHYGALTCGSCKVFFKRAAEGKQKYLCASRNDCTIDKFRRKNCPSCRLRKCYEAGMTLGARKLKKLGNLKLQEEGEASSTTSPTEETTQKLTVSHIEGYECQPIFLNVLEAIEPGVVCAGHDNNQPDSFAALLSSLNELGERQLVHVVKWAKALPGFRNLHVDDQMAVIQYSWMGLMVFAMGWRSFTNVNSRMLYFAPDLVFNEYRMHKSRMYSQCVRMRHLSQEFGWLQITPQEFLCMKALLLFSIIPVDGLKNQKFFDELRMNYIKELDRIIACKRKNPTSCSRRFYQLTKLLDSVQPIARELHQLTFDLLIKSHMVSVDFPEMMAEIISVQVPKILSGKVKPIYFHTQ
experimental details: LNCaP-AR-F876L ANT reporter assay (antagonist mode)
Assay type: cell-based
reported conditions: LNCaP-AR-F876L ANT pIC50

{"query smiles": "CN(C)C1(c2ccc(N3C(=S)N(c4cnc(C#N)c(C(F)(F)F)c4)C(=O)C34CCC4)cc2)COC1", "IC50 / nM": 447}
